Measured growth inhibition of individual entries
Assay: NCI Yeast Anticancer Drug Screen. Data for the rad50 strain (AID 155);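 also: 0% = growth of vehicle-only cultures of the same strain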
Conditions: S. cerevisiae rad50 strain growth inhibition; at 50.0 µM (retest, dose inferred, filed as 5.0); stronger effect = higher value
Protocol: Growth inhibition of yeast strains with defined genetic alterations is measured as a screen for potential anti-cancer activity. Selected strains with alterations in DNA damage repair or cell cycle control were exposed to compounds and growth inhibition was measured relative to vehicle treated controls. The strain used in this assay is rad50
The panel holds about 79,000 compounds, 15% with a hit somewhere; the sample as a whole holds those more often. Where a SMILES comes first, the peptide text is derived from it. The star is where a group is joined. Fmoc = O=C(OCC1c2ccccc2-c2ccccc21)*; Boc = CC(C)(C)OC(=O)*
endpoint.label: growth inhibition (%)

compound	endpoint.label	value.measured
CCS/C(SC)=C(/c1ccccc1)[P+](c1ccccc1)(c1ccccc1)c1ccccc1	growth inhibition	99
CNC(=O)OCc1c(COC(=O)NC)c(-c2ccc(OC)cc2)n2c1CCC2	growth inhibition	33
C/C(CCn1[nH]c(=O)ccc1=O)=N\Nc1ccc([N+](=O)[O-])cc1[N+](=O)[O-]	growth inhibition	97
CC(C)(C)OC(=O)NCCCCC(NC(=O)OCC1c2ccccc2-c2ccccc21)C(=O)N1CCCC1C(=O)NCC(N)=O (stereo not drawn) (Fmoc-Lys(Boc)-Pro-Gly-NH2; configuration not given here)	growth inhibition	98
CCCC(=O)c1cc(O)c(O)c(CN(C)Cc2cc(Cl)cc(C)c2O)c1O	growth inhibition	91
O=[N+]([O-])c1ccc2c(c1)/C(=C/c1ccc(O)cc1)c1ccccc1-2	growth inhibition	86
CC(SC1=CC(=O)c2c(Cl)ccc(O)c2C1=O)C(=O)O (centres undefined)	growth inhibition	13
CCN(CC)CCCNc1c2c(Cl)cc(Cl)cc2nc2nc(=O)[nH]c(C)c12	growth inhibition	12
COc1ccc(CN2CCCN(Cc3ccc(OC)cc3OC)C2c2cc(Br)ccc2O)c(OC)c1	growth inhibition	98
CCCCCCCCCCCCS(=O)(=O)CC(Br)C(=O)c1ccco1 (centres undefined)	growth inhibition	96
Oc1ccc2ccccc2c1I	growth inhibition	75
CSC(SC)=C1C(=O)NC(Cc2ccccc2)C1=O (centres undefined)	growth inhibition	50
O=[N+]([O-])CCc1ccco1	growth inhibition	0
CSc1ccc(/C=C2\CN(C)C/C(=C\c3ccc(SC)cc3)C2=O)cc1	growth inhibition	52
Cc1ccc(NC(=O)CC2SC(N)=NC2=O)cc1C (centres undefined)	growth inhibition	-1
CC(C)(C)CC(C)(C)NCc1cc(Cl)cc(Cc2cc(Cl)ccc2O)c1O	growth inhibition	97
CC(C)Cc1ccc(C(C)/C=C2\CCC(CN3CCCCC3)C2=O)cc1 (centres undefined)	growth inhibition	98
O=C(O)CCCNc1ncc2c(n1)-c1ccccc1OC2	growth inhibition	7
N#CC(C(=O)C(=O)NC1C2CC3CC(C2)CC1C3)c1c(Cl)cccc1Cl (centres undefined)	growth inhibition	7
O=C1OC(c2ccccc2)(c2ccc(-c3ccc(O)cc3)cc2)c2ccccc21 (centres undefined)	growth inhibition	95
O=C(O)/C=C/c1ccc(Cl)cc1Cl	growth inhibition	95
CCn1c2ccccc2c2ccc(C3C(C(=O)OC)=C(C)NC(C)=C3C(=O)OC)cc21	growth inhibition	8
O=C1OC(c2cccc(Cl)c2)Sc2ccccc21 (centres undefined)	growth inhibition	86
Cc1cc(C)cc([C@H](C)N=Cc2cc(Br)ccc2O)c1	growth inhibition	95
O=S(=O)(c1cc(Br)ccc1O)c1cc(Br)ccc1O	growth inhibition	99
CCCCCC(C)[P+](c1ccccc1)(c1ccccc1)c1ccccc1 (centres undefined)	growth inhibition	98
CC(C)c1ccc(N2C(=O)C=CC2=O)cc1	growth inhibition	97
Cc1cc2c(cc1O)CC[C@@H]1[C@@H]2CC[C@]2(C)[C@@H](O)CC[C@@H]12	growth inhibition	-27
CCOC1=Cc2c(oc3c(C(C)(C)C)cc(OCC)cc23)OC(C(C)(C)C)=C1	growth inhibition	95
c1ccc2c(c1)CC1c3[nH]c4ccccc4c3CCN21 (centres undefined)	growth inhibition	-5
C=C1CC(Cn2cc(Br)c(=O)[nH]c2=O)(c2ccc(Br)cc2)OC1=O (centres undefined)	growth inhibition	98
O=C(O)CCn1c2ccccc2c2ccccc21	growth inhibition	45
CC(C)OC(=S)SSSC(=S)OC(C)C	growth inhibition	99
CCN(CC)c1ccc2nc3ccc(N(CC)CC)cc3[n+](-c3ccccc3)c2c1	growth inhibition	98
C=CCOc1ccccc1C(=O)OC	growth inhibition	0
C#CC(=O)OCC#CCOC(=O)C#C	growth inhibition	77
CC(C)(C)C(=O)CC(=O)C(F)(F)C(F)(F)C(F)(F)F.CC(C)(C)C(=O)CC(=O)C(F)(F)C(F)(F)C(F)(F)F.CC(C)(C)C(=O)CC(=O)C(F)(F)C(F)(F)C(F)(F)F.[Gd]	growth inhibition	79
O=C1OC(=O)c2cccc3cccc1c23	growth inhibition	99
CC(C)N(C(=O)C12C3C4C1C1C2C3C41I)C(C)C (centres undefined)	growth inhibition	-6
COc1cc(C2C(C(=O)Nc3ccc(Cl)c(Cl)c3)=C(C)NC(C)=C2C(=O)Nc2ccc(Cl)c(Cl)c2)ccc1O	growth inhibition	19
COc1ccc2c(c1)nc1cc(Cl)ccc1[n+]2C	growth inhibition	97
O=C(/C=C/c1ccccc1)CCN1CCOCC1	growth inhibition	99
O=c1[nH]c2c([N+](=O)[O-])cc(Cl)cc2nc1/C=C(\O)c1cccc2ccccc12	growth inhibition	86
C[N+]1(c2ccccc2)C=C(c2ccccc2)SC1=S (centres undefined)	growth inhibition	86
